pIC50 values by entry
# target entity: farnesyl protein transferase (Homo sapiens, UniProt P49354+P49356)
# assay notes: FPT IC50, inhibition of farnesyl protein transferase (K-ras)
# Format: biochemical
The value called pIC50 is obtained by taking minus log10 of the concentration in mol/L.

# query smiles, target entity, pIC50
records = [
    ("O=C(CN1CCC(CC(=O)N2CCC([C@H]3c4ncc(Br)cc4CCc4cc(Cl)cc(Br)c43)CC2)CC1)N[C@@H]1O[C@H](CO)[C@H](O)[C@H](O)[C@H]1O", "farnesyl protein transferase (Homo sapiens, UniProt P49354+P49356)", 7.77),
    ("CON(C)C(=O)CN1CCC(CC(=O)N2CCC([C@H]3c4ncc(Br)cc4CCc4cc(Cl)cc(Br)c43)CC2)CC1", "farnesyl protein transferase (Homo sapiens, UniProt P49354+P49356)", 7.59),
]

The record that follows has no pIC50 shown yet.
Query: I am curious: what pIC50 value has been reported for CCN(CC)C(=O)CN1CCC(CC(=O)N2CCC([C@H]3c4ncc(Br)cc4CCc4cc(Cl)cc(Br)c43)CC2)CC1 ?
Result: 7.34
